experiment: Arrhythmogenic activity was determined by the onset of the first series of ectopic beats; assay type: functional, Heart
Kind request: treat 30 µM as inclusive, so Activity at 30 µM or higher is TRUE, anything lower is FALSE.

{"structure.smiles": "C[C@]12CC[C@H](O)C[C@H]1CC[C@@H]1[C@@H]2CC[C@]2(C)[C@@H](/C=C/C=C/C=N/N=C(N)N)CC[C@]12O", "assigned.category": "TRUE"}
{"structure.smiles": "C[C@]12CC[C@H](O)C[C@H]1CC[C@@H]1[C@@H]2CC[C@]2(C)[C@@H](/C=C/C3=CC(=O)OC3)CC[C@]12O", "assigned.category": "TRUE"}
{"structure.smiles": "C[C@]12CC[C@H](O)C[C@H]1CC[C@@H]1[C@@H]2CC[C@]2(C)[C@@H](CNN=C(N)N)CC[C@]12O.Cl", "assigned.category": "TRUE"}
{"structure.smiles": "C[C@]12CC[C@H](O)C[C@H]1CC[C@@H]1[C@@H]2CC[C@]2(C)[C@@H](/C=C/C=N/N=C(N)N)CC[C@]12O", "assigned.category": "FALSE"}
{"structure.smiles": "C[C@]12CC[C@H](O)C[C@H]1CC[C@@H]1[C@@H]2CC[C@]2(C)[C@@H](C3=CC(=O)OC3)CC[C@]12O", "assigned.category": "FALSE"}

###

experiment: Arrhythmogenic activity was determined by the onset of the first series of ectopic beats; type: functional, Heart
This section presents molecules with their documented Activity values.
attribute.measured: Activity (µM)

{"structure.smiles": "C[C@]12CC[C@H](O)C[C@H]1CC[C@@H]1[C@@H]2CC[C@]2(C)[C@@H](/C=N/NC3=NCCN3)CC[C@]12O", "endpoint.unit": "µM", "test.value": 300}
{"structure.smiles": "C[C@H]1O[C@@H](O[C@H]2[C@@H](O)C[C@H](O[C@H]3[C@@H](O)C[C@H](O[C@H]4CC[C@@]5(C)[C@H](CC[C@@H]6[C@@H]5C[C@@H](O)[C@]5(C)[C@@H](C7=CC(=O)OC7)CC[C@]65O)C4)O[C@@H]3C)O[C@@H]2C)C[C@H](O)[C@@H]1O", "endpoint.unit": "µM", "test.value": 3}
{"structure.smiles": "C[C@]12CC[C@H](O)C[C@H]1CC[C@@H]1[C@@H]2CC[C@]2(C)[C@@H](/C=C/C=N/NC3=NCCN3)CC[C@]12O", "endpoint.unit": "µM", "test.value": 100}

###

species on record: Cavia porcellus; assay: In vitro inotropic activity was determined by the affects of contractile force on guinea pig left atrium; format: functional, Cardiac atrium
attribute.measured: concentration giving Emax (µM)

{"structure.smiles": "C[C@]12CC[C@H](O)C[C@H]1CC[C@@H]1[C@@H]2CC[C@]2(C)[C@@H](/C=C/C=N/NC3=NCCN3)CC[C@]12O", "endpoint.unit": "µM", "test.value": 100}
{"structure.smiles": "C[C@]12CC[C@H](O)C[C@H]1CC[C@@H]1[C@@H]2CC[C@]2(C)[C@@H](/C=N/N=C(N)N)CC[C@]12O.Cl", "endpoint.unit": "µM", "test.value": 30}
{"structure.smiles": "C[C@]12CC[C@H](O)C[C@H]1CC[C@@H]1[C@@H]2CC[C@]2(C)[C@@H](/C=N/NC3=NCCN3)CC[C@]12O", "endpoint.unit": "µM", "test.value": 300}

###

molecular target: Sodium/potassium-transporting ATPase subunit alpha-1 (Canis lupus familiaris); assay: Inhibition of Na+/K+ ATPase from dog kidney
pIC50: −log10 of the molar value.
Readings of pIC50 for the listed compounds

{"structure.smiles": "C[C@]12CC[C@H](O)C[C@H]1CC[C@@H]1[C@@H]2CC[C@]2(C)[C@@H](/C=C/C=N/N=C(N)N)CC[C@]12O", "pIC50": 6.80}
{"structure.smiles": "C[C@]12CC[C@H](O)C[C@H]1CC[C@@H]1[C@@H]2CC[C@]2(C)[C@@H](/C=N/N=C(N)N)CC[C@]12O.Cl", "pIC50": 5.80}
{"structure.smiles": "C[C@]12CC[C@H](O)C[C@H]1CC[C@@H]1[C@@H]2CC[C@]2(C)[C@@H](/C=C/C=C/C=N/N=C(N)N)CC[C@]12O", "pIC50": 5.10}
{"structure.smiles": "C[C@]12CC[C@H](O)C[C@H]1CC[C@@H]1[C@@H]2CC[C@]2(C)[C@@H](C3=CC(=O)OC3)CC[C@]12O", "pIC50": 6.30}
{"structure.smiles": "C[C@]12CC[C@H](O)C[C@H]1CC[C@@H]1[C@@H]2CC[C@]2(C)[C@@H](CNN=C(N)N)CC[C@]12O.Cl", "pIC50": 5.70}
{"structure.smiles": "C[C@]12CC[C@H](O)C[C@H]1CC[C@@H]1[C@@H]2CC[C@]2(C)[C@@H](/C=C/C3=CC(=O)OC3)CC[C@]12O", "pIC50": 5.40}

###

test: % of preparations of arrhythmogenic activity was determined by the onset of the first series of ectopic beats; type: functional, Heart; design: concentration or dose not given beside the values
Recorded Activity, one value per entry.

{"compound": "C[C@]12CC[C@H](O)C[C@H]1CC[C@@H]1[C@@H]2CC[C@]2(C)[C@@H](/C=C/C=C/C=N/N=C(N)N)CC[C@]12O", "Activity, %": 100}
{"compound": "C[C@]12CC[C@H](O)C[C@H]1CC[C@@H]1[C@@H]2CC[C@]2(C)[C@@H](/C=N/NC3=NCCN3)CC[C@]12O", "Activity, %": 0}
{"compound": "C[C@]12CC[C@H](O)C[C@H]1CC[C@@H]1[C@@H]2CC[C@]2(C)[C@@H](/C=C/C3=CC(=O)OC3)CC[C@]12O", "Activity, %": 0}
{"compound": "C[C@]12CC[C@H](O)C[C@H]1CC[C@@H]1[C@@H]2CC[C@]2(C)[C@@H](/C=C/C=N/N=C(N)N)CC[C@]12O", "Activity, %": 20}
{"compound": "C[C@H]1O[C@@H](O[C@H]2[C@@H](O)C[C@H](O[C@H]3[C@@H](O)C[C@H](O[C@H]4CC[C@@]5(C)[C@H](CC[C@@H]6[C@@H]5C[C@@H](O)[C@]5(C)[C@@H](C7=CC(=O)OC7)CC[C@]65O)C4)O[C@@H]3C)O[C@@H]2C)C[C@H](O)[C@@H]1O [DIGOXIN]", "Activity, %": 50}

###

test: % of preparations of arrhythmogenic activity was determined by the onset of the first series of ectopic beats; assay type: functional, Heart; set-up: concentration or dose not given beside the values
Below, each of the compounds is paired with its reported Activity value.
attribute.measured: Activity (%)

{"compound": "C[C@]12CC[C@H](O)C[C@H]1CC[C@@H]1[C@@H]2CC[C@]2(C)[C@@H](CNN=C(N)N)CC[C@]12O.Cl", "endpoint.unit": "%", "test.value": 0}
{"compound": "C[C@]12CC[C@H](O)C[C@H]1CC[C@@H]1[C@@H]2CC[C@]2(C)[C@@H](/C=N/N=C(N)N)CC[C@]12O.Cl", "endpoint.unit": "%", "test.value": 57}
{"compound": "C[C@]12CC[C@H](O)C[C@H]1CC[C@@H]1[C@@H]2CC[C@]2(C)[C@@H](/C=C/C=N/NC3=NCCN3)CC[C@]12O", "endpoint.unit": "%", "test.value": 50}
{"compound": "C[C@]12CC[C@H](O)C[C@H]1CC[C@@H]1[C@@H]2CC[C@]2(C)[C@@H](C3=CC(=O)OC3)CC[C@]12O [DIGITOXIGENIN]", "endpoint.unit": "%", "test.value": 60}

###

Parameter concentration giving Emax: see the listing below.
species on record: Cavia porcellus; test: In vitro inotropic activity was determined by the affects of contractile force on guinea pig left atrium; format: functional, Cardiac atrium

{"structure.smiles": "C[C@]12CC[C@H](O)C[C@H]1CC[C@@H]1[C@@H]2CC[C@]2(C)[C@@H](/C=C/C=N/N=C(N)N)CC[C@]12O", "concentration giving Emax": "3 µM"}
{"structure.smiles": "C[C@H]1O[C@@H](O[C@H]2[C@@H](O)C[C@H](O[C@H]3[C@@H](O)C[C@H](O[C@H]4CC[C@@]5(C)[C@H](CC[C@@H]6[C@@H]5C[C@@H](O)[C@]5(C)[C@@H](C7=CC(=O)OC7)CC[C@]65O)C4)O[C@@H]3C)O[C@@H]2C)C[C@H](O)[C@@H]1O", "concentration giving Emax": "1 µM"}
{"structure.smiles": "C[C@]12CC[C@H](O)C[C@H]1CC[C@@H]1[C@@H]2CC[C@]2(C)[C@@H](CNN=C(N)N)CC[C@]12O.Cl", "concentration giving Emax": "30 µM"}
{"structure.smiles": "C[C@]12CC[C@H](O)C[C@H]1CC[C@@H]1[C@@H]2CC[C@]2(C)[C@@H](/C=C/C=C/C=N/N=C(N)N)CC[C@]12O", "concentration giving Emax": "100 µM"}
{"structure.smiles": "C[C@]12CC[C@H](O)C[C@H]1CC[C@@H]1[C@@H]2CC[C@]2(C)[C@@H](/C=N/NC3=NCCCN3)CC[C@]12O", "concentration giving Emax": "30 µM"}
